Experiment: Apparent permeability by PAMPA membrane
Format: ADME

>  <structure>
CCn1c(-c2ccnc(N)n2)cc(C(N)=O)c1-c1ccccc1

>  <unitName>
%

>  <permeability>
25

$$$$
>  <structure>
NC(=O)c1cc(-c2nc(N)ncc2F)[nH]c1-c1ccccc1

>  <unitName>
%

>  <permeability>
13

$$$$
>  <structure>
NC(=O)c1cc(-c2ccnc(N)n2)[nH]c1-c1ccc2sccc2c1

>  <unitName>
%

>  <permeability>
0

$$$$
>  <structure>
NC(=O)c1cc(-c2ccnc(N)n2)[nH]c1-c1ccsc1

>  <unitName>
%

>  <permeability>
6

$$$$
>  <structure>
NC(=O)c1c(-c2ccccc2)[nH]c(-c2ccnc(N)n2)c1I

>  <unitName>
%

>  <permeability>
2

$$$$
>  <structure>
NC(=O)c1cc(-c2ccnc(N)n2)[nH]c1-c1ccccc1

>  <unitName>
%

>  <permeability>
3

$$$$
>  <structure>
NC(=O)c1cc(-c2ccnc(N)n2)[nH]c1-c1cccs1

>  <unitName>
%

>  <permeability>
22

$$$$

Every entry's value here was drawn from ChEMBL document CHEMBL1268909.
